These entries and their values trace back to patent US8268814B2.

inhibition at 10 µM values, listed per item
Molecular target: human B1R receptor (hB1R) (Homo sapiens, UniProt P46663)
Construct: expressed in transfected cells; host or cells: CHO K1 cells (Chinese hamster ovary), stably transfected
Sequence (P46663 whole entry): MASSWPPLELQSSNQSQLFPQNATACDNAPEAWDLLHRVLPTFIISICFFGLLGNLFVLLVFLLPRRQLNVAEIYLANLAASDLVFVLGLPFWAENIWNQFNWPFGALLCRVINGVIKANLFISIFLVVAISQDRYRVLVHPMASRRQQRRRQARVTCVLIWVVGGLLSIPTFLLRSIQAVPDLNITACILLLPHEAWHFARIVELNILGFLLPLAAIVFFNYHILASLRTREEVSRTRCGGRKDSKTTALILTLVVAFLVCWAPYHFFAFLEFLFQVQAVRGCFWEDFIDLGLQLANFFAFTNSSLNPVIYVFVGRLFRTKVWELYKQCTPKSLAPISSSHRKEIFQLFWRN
Assay: Functional FLIPR Ca2+ assay on the bradykinin 1 receptor, human (hB1R CHO K1 cells)
Assay type: cell-based
Conditions: test substance 10 μM; CHO K1 cells transfected with human B1R gene; agonist Lys-Des-Arg9-bradykinin at EC80; % inhibition compared with maximum achievable inhibition; read-out: B1R antagonism, human (10 μM] % inhibition
A number alone suffices; assume %.

INSERT INTO assay_data (compound, measurement_unit, reading) VALUES
  ('O=C(CC1CCCCN1S(=O)(=O)c1cccc(C(F)(F)F)c1)N1CCc2nc(-c3ccncc3)sc2C1 (stereo not drawn) [Example 37]', '%', 28);

Name the recorded inhibition at 10 µM of the item COc1cc(C)c(S(=O)(=O)N2CCCC[C@H]2COCC(=O)N2CCc3sc(CN4CCCN(C)CC4)cc3C2)c(C)c1 [Example 64] in your answer.
100

Give me measured inhibition at 10 µM, please, for this compound: COc1cc(C)c(S(=O)(=O)N2CCCCC2COCC(=O)N2CCc3onc(CN4CCCCC4)c3C2)c(C)c1 (stereo not drawn) [Example 09]
100

---

Biological target: human B1R receptor (hB1R) (Homo sapiens, UniProt P46663)
Construct: expressed in transfected cells; host or cells: CHO K1 cells (Chinese hamster ovary), stably transfected
Experiment: Functional FLIPR Ca2+ assay on the bradykinin 1 receptor, human (hB1R CHO K1 cells)
Format: cell-based
Conditions: test substance 10 μM; CHO K1 cells transfected with human B1R gene; agonist Lys-Des-Arg9-bradykinin at EC80; % inhibition compared with maximum achievable inhibition; read-out: B1R antagonism, human (10 μM] % inhibition
OUTCOME_MEASURE: inhibition at 10 µM (%)
Write the value in % as a bare number.

Below: 3 molecules and their reported inhibition at 10 µM.
INSERT INTO assay_data (molecule, measurement_unit, reading) VALUES
  ('Cc1cccc(Cl)c1S(=O)(=O)N(CCOCC(=O)N1CCc2sc(CN3CC(F)(F)C3)cc2C1)C1CC1', '%', 100),
  ('COc1cc(C)c(S(=O)(=O)N2CCCCC2COCC(=O)N2CCc3nc(Cc4ccncc4)sc3C2)c(C)c1 (stereo not drawn)', '%', 99),
  ('O=C(CC1CCCCN1S(=O)(=O)c1cccc(C(F)(F)F)c1)N1CCc2sccc2C1c1ccncc1 (stereo not drawn)', '%', 16);

// fetch inhibition at 10 µM given entry CN1CCN(Cc2cc3c(s2)CCN(C(=O)CC2CCCCN2S(=O)(=O)c2cccc(C(F)(F)F)c2)C3)CC1 (stereo not drawn)
83

Fill in inhibition at 10 µM for record "O=C(C[C@@H](NS(=O)(=O)c1ccc2ccccc2c1)c1ccccc1)N1CCc2onc(-c3ccncc3)c2C1"
83

Specify inhibition at 10 µM for COc1cc(C)c(S(=O)(=O)N2CCCCC2COCC(=O)N2CCc3sc(CN4CCN(C)CC4)cc3C2)c(C)c1 (stereo not drawn) and stop.
100

---

Parameter: inhibition at 10 µM. Scope: all listed entries.
Biological target: human B1R receptor (hB1R) (Homo sapiens, UniProt P46663)
Construct: expressed in transfected cells; host or cells: CHO K1 cells (Chinese hamster ovary), stably transfected
Assay: Functional FLIPR Ca2+ assay on the bradykinin 1 receptor, human (hB1R CHO K1 cells)
Assay type: cell-based
Settings: test substance 10 μM; CHO K1 cells transfected with human B1R gene; agonist Lys-Des-Arg9-bradykinin at EC80; % inhibition compared with maximum achievable inhibition; read-out: B1R antagonism, human (10 μM] % inhibition
Report the figure in % without appending any unit label.

These solved cases illustrate the format of a correct answer.
INSERT INTO measurements (molecule, measurement_target, outcome_measure, measurement_unit, reading) VALUES
  ('COc1cc(C)c(S(=O)(=O)N2CCCCC2COCC(=O)N2CCc3onc(CN4CCCCC4)c3C2c2ccccc2)c(C)c1 (stereo not shown)', 'human B1R receptor (hB1R) (Homo sapiens, UniProt P46663)', 'inhibition at 10 µM', '%', 90),
  ('COc1cc(C)c(S(=O)(=O)N2CCCCC2COCC(=O)N2CCc3onc(-c4ccncc4)c3C2)c(C)c1 (stereo not shown)', 'human B1R receptor (hB1R) (Homo sapiens, UniProt P46663)', 'inhibition at 10 µM', '%', 100),
  ('COc1cc(C)c(S(=O)(=O)N2CCCCC2COCC(=O)N2CCc3sccc3C2c2ccc(F)cc2)c(C)c1 (stereo not shown)', 'human B1R receptor (hB1R) (Homo sapiens, UniProt P46663)', 'inhibition at 10 µM', '%', 96),
  ('COc1cc(C)c(S(=O)(=O)N2CCCCC2COCC(=O)N2CCc3onc(C(=O)N4CCCCC4)c3C2)c(C)c1 (stereo not shown)', 'human B1R receptor (hB1R) (Homo sapiens, UniProt P46663)', 'inhibition at 10 µM', '%', 85),
  ('COc1cc(C)c(S(=O)(=O)N2CCCCC2COCC(=O)N2CCc3onc(-c4ccc(Cl)cc4)c3C2)c(C)c1 (stereo not shown)', 'human B1R receptor (hB1R) (Homo sapiens, UniProt P46663)', 'inhibition at 10 µM', '%', 73),
  ('Cc1cc(S(=O)(=O)N2CCCCC2CCC(=O)N2CCc3sccc3C2c2cccc(C(F)(F)F)c2)c(C)cc1Cl (stereo not shown)', 'human B1R receptor (hB1R) (Homo sapiens, UniProt P46663)', 'inhibition at 10 µM', '%', 29);

Note inhibition at 10 µM for the molecule shown: Cc1cc(S(=O)(=O)N2CCCCC2CCC(=O)N2CCc3sccc3C2c2ccc(Cl)nc2)c(C)cc1Cl (stereo not shown)
40

---

Target: B1R receptor of the rat (rB1R) (Rattus norvegicus)
Construct: expressed in transfected cells; host or cells: CHO K1 cells (Chinese hamster ovary), stably transfected
Sequence (P97583 whole entry): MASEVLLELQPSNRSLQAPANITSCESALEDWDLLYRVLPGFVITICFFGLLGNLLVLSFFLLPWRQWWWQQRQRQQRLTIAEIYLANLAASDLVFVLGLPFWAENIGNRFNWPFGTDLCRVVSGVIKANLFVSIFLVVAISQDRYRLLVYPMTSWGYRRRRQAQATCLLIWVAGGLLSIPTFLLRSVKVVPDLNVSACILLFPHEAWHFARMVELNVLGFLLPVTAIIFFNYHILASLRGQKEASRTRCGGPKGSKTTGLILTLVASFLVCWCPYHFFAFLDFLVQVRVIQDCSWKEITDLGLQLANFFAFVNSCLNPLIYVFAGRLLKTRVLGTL
Test: Functional FLIPR Ca2+ assay on the bradykinin 1 receptor, rat (rB1R CHO K1 cells)
Format: cell-based
Details: test substance 10 μM; CHO K1 cells transfected with rat B1R gene; agonist Des-Arg9-bradykinin at EC80; % inhibition compared with maximum achievable inhibition; read-out: B1R antagonism, rat [10 μM] % inhibition
OUTCOME_MEASURE: inhibition at 10 µM (%)
API: value field is a number in %; no unit string.

Consider the reported inhibition at 10 µM for these compounds:
INSERT INTO results (compound, measurement_unit, reading) VALUES
  ('CN1CCN(Cc2cc3c(s2)CCN(C(=O)CC(NS(=O)(=O)c2ccc4ccccc4c2)c2ccccc2)C3)CC1 (racemic) [Example 46]', '%', 102),
  ('Cc1cc(S(=O)(=O)N2CCCCC2CCC(=O)N2CCc3sccc3C2c2cccc(F)c2)c(C)cc1Cl (centres unmarked) [Example 35]', '%', 3),
  ('COc1cc(C)c(S(=O)(=O)N2CCCCC2CCCC(=O)N2CCc3nc(-c4ccncc4)sc3C2)c(C)c1 (centres unmarked) [Example 53]', '%', 98),
  ('COc1cc(C)c(S(=O)(=O)N2CCCC[C@H]2COCC(=O)N2CCc3sc(CN4CCCC4)cc3C2)c(C)c1 [Example 62]', '%', 107),
  ('Cc1cccc(Cl)c1S(=O)(=O)N1CCCCC1CCCC(=O)N1CCc2[nH]cnc2C1c1ccccc1 (centres unmarked) [Example 69]', '%', 64),
  ('CCC1c2ccsc2CCN1C(=O)CCCC1CCCCN1S(=O)(=O)c1c(C)cc(OC)cc1C (centres unmarked) [Example 23]', '%', 105),
  ('COc1cc(C)c(S(=O)(=O)N2CCCCC2COCC(=O)N2CCc3onc(CN(C)C)c3C2)c(C)c1 (centres unmarked) [Example 31]', '%', 105),
  ('O=C(CC(NS(=O)(=O)c1ccc2ccccc2c1)c1ccccc1)N1CCc2nc(Cc3ccncc3)sc2C1 (racemic) [Example 42]', '%', 79);

Please give the documented inhibition at 10 µM of COc1cc(C)c(S(=O)(=O)N2CCCCC2COCCC(=O)N2CCc3[nH]cnc3C2c2ccccc2)c(C)c1 (centres unmarked) [Example 100]
101

---

Target: human B1R receptor (hB1R) (Homo sapiens, UniProt P46663)
Construct: expressed in transfected cells; host or cells: CHO K1 cells (Chinese hamster ovary), stably transfected
Experiment: Functional FLIPR Ca2+ assay on the bradykinin 1 receptor, human (hB1R CHO K1 cells)
Assay type: cell-based
Conditions: test substance 10 μM; CHO K1 cells transfected with human B1R gene; agonist Lys-Des-Arg9-bradykinin at EC80; % inhibition compared with maximum achievable inhibition; read-out: B1R antagonism, human (10 μM] % inhibition
OUTCOME_MEASURE: inhibition at 10 µM (%)
I only need the number, in %, no unit after it.

Recorded results for 4 compounds are shown here.
INSERT INTO measurements (compound, outcome_measure, measurement_unit, reading) VALUES
  ('O=C(C[C@@H](NS(=O)(=O)c1ccc2ccccc2c1)c1ccccc1)N1CCc2onc(CN3CCCCC3)c2C1', 'inhibition at 10 µM', '%', 49),
  ('COc1cc(C)c(S(=O)(=O)N2CCCCC2COCC(=O)N2CCc3onc(CN4CCOCC4)c3C2)c(C)c1 (stereo not shown)', 'inhibition at 10 µM', '%', 99),
  ('Cc1cc(S(=O)(=O)N2CCCCC2CCC(=O)N2CCc3sccc3C2c2ccncc2)c(C)cc1Cl (stereo not shown)', 'inhibition at 10 µM', '%', 88),
  ('O=C(CC1CCCCN1S(=O)(=O)c1cccc(C(F)(F)F)c1)N1CCc2sccc2C1c1ccc(F)cc1 (stereo not shown)', 'inhibition at 10 µM', '%', 35);

Give recorded inhibition at 10 µM. "COc1cc(C)c(S(=O)(=O)N(C)CCOCC(=O)N2CCc3onc(CN(C)C)c3C2)c(C)c1"
99

Look up inhibition at 10 µM of COc1cc(C)c(S(=O)(=O)N2CCCCC2COCC(=O)N2CCc3sc(CN4CCCCC4)cc3C2)c(C)c1 (stereo not shown) and report it.
100

Output inhibition at 10 µM of "Cc1cccc(Cl)c1S(=O)(=O)N(CCOCC(=O)N1CCc2sc(CN3CCCCC3)cc2C1)C1CC1"
100
